meta.source: patent US20100135997A1

Recorded pKd values for a group of binders are listed next.
target: T1, HLA-A*0201 loaded with the Carcinoembryonic antigen (CEA)-derived … peptide (biotin on the C-terminal biotinylation tag); experiment: Biacore SPR
T1 construct: Soluble, biotinylated, immobilised on a streptavidin chip
pKd: −log10 of the molar value.

{"columns": ["binder", "pKd"],
 "data": [
  ["SEQ ID NO 129 (receptor, mutated soluble two domain ILT-2) MGHLPKPTLWAEPGSVITMDQPVTLRCQGGQETQEYRLYREKKTAPWITRIPQELVKKGQFPIPSITWEHAGRYRCYYGSDTSQWSASSDPLELVVTGVYIKPTLSAQPSPVVNSGGNVTLQCDSPFLTDGFILCKEGEDEHPQCLNSQPHARGSSRAIFSVGPVSPSRRWWYRCYAYMSWSPYEWSLPSDLLELDVDG", "≥ 6.00"],
  ["SEQ ID NO 51 (receptor, mutated soluble two domain ILT-2) MAGHLPKPTLWAEPGSVITMDQPVTLRCQGGQETQEYRLYREKKTAPWITRIPQELVKKGQFPIPSITWEHAGRYRCYYGSDTSQWSASSDPLELVVTGVYIKPTLSAQPSPVVNSGGNVTLQCDSQVAFDGFILCKEGEDEHPQCLNSQPHARGSSRAIFSVGPVSPSRRWWYRCYAYPIWTPYEWSLGSDLLELDVDG", "≥ 6.00"],
  ["SEQ ID NO 132 (receptor, mutated soluble two domain ILT-2) MGHLPKPTLWAEPGSVITMDQPVTLRCQGGQETQEYRLYREKKTAPWITRIPQELVKKGQFPIPSITWEHAGRYRCYYGSDTSQWSASSDPLELVVTGVYIKPTLSAQPSPVVNSGGNVTLQCDSPFIAEGFILCKEGEDEHPQCLNSQPHARGSSRAIFSVGPVSPSRRWWYRCYAYMSWSPYEWSLPSDLLELDVDG", "≥ 6.00"]
]}
